The values you see were collected from ChEMBL document CHEMBL1687858.

Would you mind telling me the reported IC50 of each entry?
Target: Hypoxia inducible factors; HIF-1-alpha, HIF-2-alpha (Homo sapiens, UniProt Q16665+Q99814)
Assay: Inhibition of 1,10-phenanthrolin-induced HIF1 activation in human T47D cells expressing pGL3 construct after 16 hrs by cell-based luciferase reporter assay
A number alone suffices; assume µM.

Reported IC50 ( CC[C@H](C)C(=O)c1c(O)c(CC=C(C)C)c2oc(=O)cc(-c3ccccc3)c2c1O ) = 4.82

Documented IC50 of CCCC[C@H](OC)c1cc(=O)oc2c(CC(=O)[C@@H](C)CC)c(OC)c(CC=C(C)C)c(OC)c12 : 15.7

Quick note, IC50 for CCCC[C@H](O)c1cc(=O)oc2c(CC(=O)[C@@H](C)CC)c(OC)c(CC=C(C)C)c(OC)c12 landed at 11.3

Quick note, IC50 for CC(C)=CCc1c(O)c(C(=O)CC(C)C)c2oc(=O)cc(-c3ccccc3)c2c1O landed at 3.73

Notebook: CCCC[C@H](OC(C)=O)c1cc(=O)oc2c(C(=O)[C@@H](C)CC)c(OC(C)=O)c(CC=C(C)C)c(O)c12 , IC50 read as 5.47

Briefly, IC50 measured for CCCc1cc(=O)oc2c(CC=C(C)C)c(O)c(C(=O)CC(C)C)c(O)c12 : 9.56

Lab note: measured IC50 of CCCCCc1cc(=O)oc2c(C(=O)CC(C)C)c(O)c(CC=C(C)C)c(O)c12 was 2.71

The molecule identified as CC(C)=CCc1c(O)c(C(=O)CC(C)C)c(O)c2c(-c3ccccc3)cc(=O)oc12 registered its IC50 at 3.71
